Exercise: state measured IC50 for each of the compounds provided.
System: Raji
Experiment: Cytotoxicity against human Raji cells assessed as reduction in cell viability after 72 hrs by MTT assay
Assay type: functional, cell-based
Answers are plain numbers, in µM.

Working through the 8 compounds below one at a time, give IC50 for each.
1. O=C1C=C[C@]2(C[C@H](OC(=O)/C=C/c3ccc(F)cc3)[C@@H](c3ccccc3)O2)O1
2. O=C1C=C[C@@]2(C[C@H](OC(=O)/C=C/c3ccc(F)cc3)[C@@H](c3ccccc3)O2)O1
3. O=C1C=C[C@@]2(C[C@H](O)[C@H](c3ccccc3)O2)O1
4. O=C1C=C[C@]2(C[C@H](O)[C@@H](c3ccccc3)O2)O1
5. O=C1C=C[C@@]2(C[C@H](OC(=O)/C=C/c3ccc(F)cc3)[C@H](c3ccccc3)O2)O1
6. O=C1C=C[C@@]2(C[C@H](O)[C@@H](c3ccccc3)O2)O1
7. O=C1C=C[C@]2(C[C@H](O)[C@H](c3ccccc3)O2)O1
8. COc1ccc(/C=C/C(=O)O[C@H]2C[C@]3(C=CC(=O)O3)O[C@H]2c2ccccc2)cc1

Response:
1: 34.1; 2: 55.4; 3: 2.69; 4: 2.34; 5: 5.37; 6: 5.97; 7: 8.84; 8: 8.69

I would be grateful if you could provide IC50 for each of the following entries.
1. O=C1C=C[C@]2(C[C@H](OC(=O)/C=C/c3ccc([N+](=O)[O-])cc3)[C@H](c3ccccc3)O2)O1
2. O=C1C=C[C@@]2(C[C@H](OC(=O)/C=C/c3ccccc3)[C@H](c3ccccc3)O2)O1
3. O=C1C=C[C@@]2(C[C@H](OC(=O)/C=C/c3ccccc3)[C@@H](c3ccccc3)O2)O1

Response:
1. 11.8
2. 2.28
3. 2.38

====

System: MDA-MB-231
Experiment: Cytotoxicity against human MDA-MB-231 cells assessed as reduction in cell viability after 72 hrs by MTT assay
Type: functional, cell-based
Details: MDA-MB-231, 72 h
ASSAY_METRIC: IC50 (µM)
One number for each entry, in µM.

| STRUCTURE_SMILES_STRING | REPORTED_VALUE |
| --- | --- |
| O=C1C=C[C@]2(C[C@H](O)[C@H](c3ccccc3)O2)O1 | 45.1 |
| O=C1C=C[C@]2(C[C@H](OC(=O)/C=C/c3ccc(F)cc3)[C@H](c3ccccc3)O2)O1 | 1.02 |
| O=C1C=C[C@@]2(C[C@H](OC(=O)/C=C/c3ccc(F)cc3)[C@H](c3ccccc3)O2)O1 | 7.54 |

Query: Find the recorded IC50 belonging to "O=C1C=C[C@@]2(C[C@H](OC(=O)/C=C/c3ccccc3)[C@@H](c3ccccc3)O2)O1" and report it.
Response: 3.45

====

Tested on: K562
Assay: Induction of apoptosis in human K562 cells assessed as specific apoptosis by Annexin V-FITC/propidium iodide staining based flow cytometry
Type: functional
Design: concentration or dose not given beside the values
I'd be grateful if you could share measured Activity for these entries.
Give bare numbers, in %.

Illustrative cases are given below, each with its answer.
| STRUCTURE_SMILES_STRING | TARGET_ENTITY | UNIT_SPEC | REPORTED_VALUE |
| --- | --- | --- | --- |
| O=C1C=C[C@@]2(C[C@H](OC(=O)/C=C/c3ccc(F)cc3)[C@@H](c3ccccc3)O2)O1 | K562 | % | 4.02 |
| COc1ccc(/C=C/C(=O)O[C@H]2C[C@@]3(C=CC(=O)O3)O[C@@H]2c2ccccc2)cc1 | K562 | % | 15.35 |
| O=C1C=C[C@]2(C[C@H](OC(=O)/C=C/c3ccc(F)cc3)[C@H](c3ccccc3)O2)O1 | K562 | % | 85.69 |
| O=C1C=C[C@@]2(C[C@H](OC(=O)/C=C/c3ccc([N+](=O)[O-])cc3)[C@H](c3ccccc3)O2)O1 | K562 | % | 70.03 |
| O=C1C=C[C@]2(C[C@H](OC(=O)/C=C/c3ccc([N+](=O)[O-])cc3)[C@H](c3ccccc3)O2)O1 | K562 | % | 81.97 |

# batch size: 3; output Activity per entry
1. O=C1C=C[C@@]2(C[C@H](O)[C@@H](c3ccccc3)O2)O1
2. COc1ccc(/C=C/C(=O)O[C@H]2C[C@@]3(C=CC(=O)O3)O[C@H]2c2ccccc2)cc1
3. O=C1C=C[C@]2(C[C@H](OC(=O)/C=C/c3ccc([N+](=O)[O-])cc3)[C@@H](c3ccccc3)O2)O1

Response:
1: 11.74; 2: 2.36; 3: 0.75

Go through the list and state Activity for each entry.
1. O=C1C=C[C@]2(C[C@H](OC(=O)/C=C/c3ccccc3)[C@H](c3ccccc3)O2)O1
2. O=C1C=C[C@]2(C[C@H](OC(=O)/C=C/c3ccc(F)cc3)[C@@H](c3ccccc3)O2)O1
3. COc1ccc(/C=C/C(=O)O[C@H]2C[C@]3(C=CC(=O)O3)O[C@@H]2c2ccccc2)cc1
4. O=C1C=C[C@@]2(C[C@H](O)[C@H](c3ccccc3)O2)O1
5. O=C1C=C[C@]2(C[C@H](O)[C@H](c3ccccc3)O2)O1

Response:
1. 81.79
2. 8.05
3. 37.78
4. 10.05
5. 7.78

Your task in this section: give Activity for each listed record.
1. O=C1C=C[C@]2(C[C@H](OC(=O)/C=C/c3ccccc3)[C@@H](c3ccccc3)O2)O1
2. O=C1C=C[C@@]2(C[C@H](OC(=O)/C=C/c3ccc(F)cc3)[C@H](c3ccccc3)O2)O1
3. O=C1C=C[C@@]2(C[C@H](OC(=O)/C=C/c3ccc([N+](=O)[O-])cc3)[C@@H](c3ccccc3)O2)O1
4. O=C1C=C[C@@]2(C[C@H](OC(=O)/C=C/c3ccccc3)[C@@H](c3ccccc3)O2)O1
5. O=C1C=C[C@@]2(C[C@H](OC(=O)/C=C/c3ccccc3)[C@H](c3ccccc3)O2)O1

Response:
83.35
18.71
10.54
86.01
6.76

Provide Activity values for the following items, in order.
1. COc1ccc(/C=C/C(=O)O[C@H]2C[C@]3(C=CC(=O)O3)O[C@H]2c2ccccc2)cc1
2. O=C1C=C[C@]2(C[C@H](O)[C@@H](c3ccccc3)O2)O1

Response:
2.28
22.6
